Measured values drawn from PubChem BioAssay (NCATS) for this set.

experiment: qHTS drug screen for cell cycle checkpoint inhibitors in PARPi-resistant BRCA-mutant ovarian cancer cell lines. (AID 1963452); conditions: PEO1/OlaR viability, CellTiter-Glo luminescence, 96 h; measured here: PEO1 parental Z-AUC; stronger effect = lower value
parameter: Z-AUC
Number, no unit, nothing else.

The examples below pair each entry with its known result.
Cc1cc(C)c(S(=O)(=O)N(CCc2cccc(Br)c2)Cc2ccc(-c3cccc(S(C)(=O)=O)c3)cc2)c(C)c1 ... 0.747
OC1CCC(Oc2cccc3cnc(Nc4ccc5nc[nH]c5c4)nc23)CC1 (stereo not given) ... -1.54
Cc1ccc(S(=O)(=O)Nc2cc(-c3ccc(C#N)s3)ccc2C)cc1 ... -2.3

Specify Z-AUC for O=C(/C=C/N1C[C@H]2C[C@@H]1CN2c1ccccn1)c1ccccc1O and stop.
0.925

In one line, give reported Z-AUC of the entry O=C1NC(=O)/C(=C\c2ccc(-c3ccc(F)cc3)o2)S1 .
0.696

###

test: A2780 Cisplatin Sensitive Ovarian Cancer Cell Toxicity qHTS against the NCATS CANVASS Library (AID 1347353); settings: A2780 ovarian cancer viability, ATPLite luminescence, 72 h; series mostly up to 46.1 µM; note: nearly all actives have a fitted effect of over 60% in size
Inconclusive results are not listed. Calls of active or inactive are those of the source. Calls follow the shape of the dose curve; as a rule, active = well fitted cell-killing curve with a large enough effect; inconclusive = small, poorly fitted or top-dose-only effect; inactive = flat fitted curve, though single readings scatter.
Use one of these outcomes when replying: true for active, false for inactive

CC[C@@H]1C[C@@]2(CC)OC(=O)[C@@]3(CC)[C@H](CC)[C@@H]1[C@@H]23 ... false
C=C1C[C@]23C=CC(=O)[C@@](C)(CCCC(C)C(=O)N[C@@H](CO)C(=O)O)[C@@H]2C[C@@H]1CC3 (stereo not given in full) ... false
CCC(=O)N[C@@H](C[C@H](C)C(Cl)(Cl)Cl)C(=O)N1C(=O)C=C(OC)[C@@H]1CC(C)C ... true
O=C1CC2OCC=C3CN4C5CC3C2[C@@H]2N1c1ccccc1[C@]52C[C@@H]4C1=C[C@H]2C3CC4N(CC[C@@]45c4ccccc4N(C1=O)[C@@H]25)C/C3=C/CO (stereo not given in full) ... true
C[C@]12CC[C@]3(C1)[C@H](CC2=O)C[C@@H](OC(=O)c1ccccc1)[C@H]1[C@](C)(C(=O)O)CCC[C@@]13C ... true

Fill in: this test's call for COC(=O)c1cc2cc3c(c(O)c2c(=O)o1)OC1(CC3)CC2=C(O1)C(=O)c1c(O)c(OC)cc(OC)c1C2=O (stereo not given) is ___
true

For C=C1C[C@H]2O[C@@H]3[C@@H]4[C@H](CC[C@@](C)(O)[C@@H]42)[C@H](C)COC3(C)[C@@H](OC(=O)CCCCCCC)CC1=O (stereo not given in full) , which call appears in the assay record?
true

Assay outcome for O=c1cc(-c2ccc(O)cc2)oc2cc(O)c([C@@H]3OC(CO)[C@H](O)[C@@H](O)[C@H]3O)c(O)c12 (stereo not given in full) : what was it?
false

###

target: Glutathione peroxidase 1 (Homo sapiens) (UniProt P07203); assay: Primary qHTS Assay for Inhibitors of Recombinant Selenoprotein Glutathione Peroxidase 1 (GPX1) (AID 1845191); details: recombinant GPX1, GR-coupled NADPH fluorescence, 15 min; series mostly up to 48.8 µM; note: nearly all actives have a fitted effect of over 65% in size
Sequence (P07203 whole entry, looked up): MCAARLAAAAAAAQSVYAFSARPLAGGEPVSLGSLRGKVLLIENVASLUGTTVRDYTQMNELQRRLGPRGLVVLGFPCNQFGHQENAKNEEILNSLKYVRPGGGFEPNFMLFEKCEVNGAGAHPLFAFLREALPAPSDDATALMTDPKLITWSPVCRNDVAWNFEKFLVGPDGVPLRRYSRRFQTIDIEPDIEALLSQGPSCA
Records with an inconclusive call do not appear. Active and inactive are the calls of the source. The call rests on the fitted dose curve; in most records, active means well fitted inhibition curve with a large enough effect; inconclusive means small, poorly fitted or top-dose-only effect; inactive means flat fitted curve, though single readings scatter.
Returns: one label drawn from true (1) for active, false (0) for inactive

Cc1nnn(C)c1-c1cnc2c3ccc(C(C)(C)O)cc3n([C@H](c3ccccc3)C3CCOCC3)c2c1 ... true (1)
O=C(/C=C\n1cnc(-c2cc(C(F)(F)F)cc(C(F)(F)F)c2)n1)NNc1cnccn1 ... false (0)
Cc1cc(C)c(CNC(=O)c2cc(-c3ccc(N4CCN(C)CC4)nc3)cc3c2c(C)cn3C(C)C)c(=O)[nH]1 ... false (0)
CC(=O)O/N=C1\C(=O)N(Cc2cc(Cl)ccc2Cl)c2ccc(Cl)cc21 ... false (0)
CC1(C)CCC2(CC1)N[C@@H](C(=O)N[C@@H]1CC[C@@H](C(N)=O)OC1)[C@H](c1ccnc(Cl)c1F)[C@]21C(=O)Nc2cc(Cl)ccc21 ... false (0)

Tell me the recorded outcome of this test for NC1=N[C@@]2(c3cc(NC(=O)c4ccc(F)cn4)ccc3F)COC[C@H]2CS1 .
false (0)

Hey, what did the test say about C=CCN1C[C@H](C(=O)N(CCCN(C)C)C(=O)NCC)CC2c3cccc4[nH]cc(c34)C[C@H]21 (some centres not stated) ?
false (0)

###

experiment: qHTS drug screen for cell cycle checkpoint inhibitors in PARPi-resistant BRCA-mutant ovarian cancer cell lines. (AID 1963452); conditions: PEO1/OlaR viability, CellTiter-Glo luminescence, 96 h; measured here: PEO4 Z-AUC; stronger effect = lower value
parameter: Z-AUC
I only need the number, thanks.

Illustrative cases are given below, each with its answer.
Cc1cc(C)c(S(=O)(=O)N(CCc2cccc(Br)c2)Cc2ccc(-c3cccc(S(C)(=O)=O)c3)cc2)c(C)c1 ... 0.467
Cn1cc(/C=C2\C(=O)Nc3cccnc32)c2ccccc21 ... -0.377
Nc1cc(COc2c(Cl)cc(C[C@H](N)C(=O)O)cc2Cl)c2oc(-c3ccccc3)nc2c1 ... -0.878
CC1(C)CCC2(CC1)N[C@@H](C(=O)N[C@@H]1CC[C@@H](C(N)=O)OC1)[C@H](c1ccnc(Cl)c1F)[C@]21C(=O)Nc2cc(Cl)ccc21 ... -0.309
COC(=O)N(CC(=O)O)Cc1cccc(OCc2nc(-c3ccc(Cl)cc3)oc2C)c1 ... 0.458

Find the measured Z-AUC of CN(Cc1ccc(/C=C/C(=O)NO)cc1)CC12CC3CC(CC(C3)C1)C2 and report it.
-1.12

Write down Z-AUC measured for item CC(=O)N[C@H]1CSSC[C@@H](C(N)=O)NC(=O)[C@H](C(C)C)NC(=O)[C@H](C)NC(=O)[C@H](Cc2cnc[nH]2)NC1=O
-0.422

Output Z-AUC of CN1CCN(c2ccc3nc(-c4cc(C(C)(C)C)c(OCCCC(=O)NCCCN=[N+]=[N-])c(C(C)(C)C)c4)[nH]c3c2)CC1
0.156

State its Z-AUC: CC(=O)c1cc2c(o1)C(=O)c1ccccc1C2=O
-1.88

Indicate the recorded Z-AUC value for this compound: O=C(/C=C\n1cnc(-c2cc(C(F)(F)F)cc(C(F)(F)F)c2)n1)NNc1cnccn1
-1.63

Give the reported value of Z-AUC for this record: CN(CCOc1ccc(-c2ccc3c(c2)OCO3)cc1C(C)(C)C)CC(=O)O
1.29

Give Z-AUC for C[C@H]1CC2[C@@H]3CCC4=CC(=O)C=C[C@]4(C)[C@@]3(F)[C@@H](O)C[C@]2(C)[C@@]1(O)C(=O)CO (some centres undefined)
-0.996

Supply recorded Z-AUC for CC(C)OC(=O)[C@H](C)N[P@](=O)(OC[C@H]1O[C@@H](n2ccc(=O)[nH]c2=O)[C@](C)(F)[C@@H]1O)Oc1ccccc1 here.
0.765

###

experiment: qHTS Assay for Lipid Storage Modulators (AID 1519); conditions: Drosophila S3 cells, BODIPY lipid droplet/cell ratio, laser cytometry; measured here: cell count channel max response; cells loaded with oleic acid
Records with an inconclusive call do not appear.
parameter: max response (%)
Enter your answer as a number in %; do not include the unit.

Example cases with answers are listed next.
CC(C)NC(=O)N1CCCC2(CCN(S(=O)(=O)c3ccccc3)CC2)C1 ... 20
Fc1ccc(Nc2ncncc2-c2ccccc2C(F)(F)F)cc1 ... 13
Cn1c(=O)c(-c2ccc(Cl)cc2)nc2cnc(Oc3cccc(Cl)c3)nc21 ... 11.8

Check the records and state max response for O=c1cnc2cnc(N3CCOCC3)nc2n1CCc1ccccc1
1.44

Note down max response recorded for CCNc1ncc2ncc(=O)n(CCOC)c2n1
18.7

Fill in max response for record COc1ccc(-c2nc3cnc(N4CCOCC4)nc3n(C)c2=O)cc1
7.61

Please indicate max response recorded for COc1ccc(NC(=O)N2CCCC3(CCN(S(C)(=O)=O)CC3)C2)cc1
-9.3

Report max response for COc1ccccc1CCn1c(=O)c(-c2cccc(F)c2)nc2cncnc21
18.2

Supply max response value. Item: COCC(=O)N1CCC2(CCCN(C(=O)Nc3cccc(F)c3)C2)CC1
4.52

Annotate the compound COc1cccc(-c2ccc3ncnc(NCc4cccs4)c3c2)c1 with its measured max response.
-18.2

Look up and state reported max response for O=C(c1cc(C(F)(F)F)cc(C(F)(F)F)c1)N1CCC[C@@]2(CCN(Cc3ccncc3)C2)C1
20.1

Tell me max response reported for Cc1noc(C)c1-c1cc(N2CCN(C)CC2)ncn1
22.8

Specify max response for O=C(Nc1cccc(F)c1)N1CCC2(CC1)CCN(C(=O)c1csnn1)CC2 and stop.
12.6

State its max response: Cc1cccc(CNc2ncncc2-c2ccc3c(c2)OCO3)c1
7.25

Give the value of max response reported for the following: N#Cc1cccc(-c2cncnc2NCc2cccs2)c1
15.7
